Ref: patent US20190367628A1

Listed next: entries and their corresponding MFI.
TARGET OF ASSAY: T1, Cyno BCMA APP-Avi (cynomolgus, biotinylated (site not stated))
T1 construct: It was used as soluble biotinylated antigen; also called biotinylated cyno BCMA
T1 sequence (chain, as listed by the source limits assumed): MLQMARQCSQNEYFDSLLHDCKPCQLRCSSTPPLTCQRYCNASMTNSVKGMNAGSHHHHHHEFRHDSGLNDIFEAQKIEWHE
PROCEDURE DETAILS: flow cytometry of single yeast clone displaying the scFv, labelled with 20 nM biotinylated cyno BCMA, streptavidin/neutravidin-DyLight 633 detection
PROPERTY LABEL: MFI

- H2/L2-47 scFv (scFv) scFv: QVQLQSSEGGVVQPGRSLRLSCAASGFTFSSYGMHWVRQAPGKGLEWVAVISYKGSNKYYADSVKGRFTISRDNSKNTLYLQMNSLRAEDTAVYYCGGSGYALHDDYYGLDVWGQGTLVTVSSSGGGGSGGGGSGGGGSGGGGSQSALTQPASVSGSPGQSITISCTGTSSDVGGYNYVSWYQQHPGKAPKLMIYDVSNRPWGVSNRFSGSKFGNTASLTISGLQAEDEADYYCSSYTSSSTLYVFGSGTKVTVL: 14200 MFI
- H2/L2-88 scFv (scFv) scFv: QVQLQSSEGGVVQPGRSLRLSCAASGFTFSSYGMHWVRQAPGKGLEWVAVISYKGSNKYYADSVKGRFTISRDNSKNTLYLQMNSLRAEDTAVYYCGGSGYALHDDYYGLDVWGQGTLVTVSSSGGGGSGGGGSGGGGSGGGGSQSALTQPASVSGSPGQSITISCTGTSSDVGGYNYVSWYQQHPGKAPKLMIYEVSNRLRGVSNRFSGSKFGNTASLTISGLQAEDEADYYCSSYTSSSALYVFGSGTKVTVL: 4480 MFI
- H2/L2-80 scFv (scFv) scFv: QVQLQSSGGGVVQPGRSLRLSCAASGFTFSSYGMHWVRQAPGKGLEWVAVISYTGSNKYYADSVKGRFTISRDNSKNTLYLQMNSLRAEDTAVYYCGGSGYALHDDYYGLDVWGQGTLVTVSSSGGGGSGGGGSGGGGSGGGGSQSALTQPASVSGSPGQSITISCTGTSSDVGGYNYVSWYQQHPGKAPKLMIYDVSNRAWGVSNRFSGSKFGNTASLTISGLQAEDEADYYCSSYTSSSALYVFGSGTKVTVL: 17900 MFI
